Catalogue of maximal growth inhibition readings, one per entry.
System: SUDIPGVI (diffuse intrinsic pontine glioma line)
measurementDescription: maximal growth inhibition (yFin) relative to DMSO / staurosporine; higher = more efficacious
Dear colleague, please return just the value in %, with no unit written.

A selection of reference data follows.
# smilesRecord, number
measured = [
    ("CC(=O)OC[C@H]1O[C@@H]([S-])[C@H](OC(C)=O)[C@@H](OC(C)=O)[C@@H]1OC(C)=O.CCP(CC)CC.[Au+]", 114),
    ("Cc1ccc2nc(NCCN)c3ncc(C)n3c2c1", 70.6),
    ("CS[C@H]1SC[C@H]2C(=O)N(C)[C@@H](C(C)C)C(=O)OC[C@@H](NC(=O)c3cnc4ccccc4n3)C(=O)N[C@@H](C)C(=O)N(C)[C@@H]1C(=O)N(C)[C@@H](C(C)C)C(=O)OC[C@@H](NC(=O)c1cnc3ccccc3n1)C(=O)N[C@@H](C)C(=O)N2C", 71),
]

"CN(C)C/C=C/C(=O)Nc1cc2c(Nc3ccc(F)c(Cl)c3)ncnc2cc1O[C@H]1CCOC1" on SUDIPGVI gives maximal growth inhibition = 111

The compound "CC(=O)c1cc([N+](=O)[O-])c(Sc2ccc(F)cc2F)s1" , when measured on SUDIPGVI, yielded maximal growth inhibition of 94.1

With SUDIPGVI as the test system, "Cc1noc2c1-c1ccccc1C(c1ccc(Cl)cc1)=N[C@H]2CC(N)=O" showed maximal growth inhibition of 106

Result for "CCCc1cc(C)[nH]c(=O)c1CNC(=O)c1cc(-c2ccnc(N3CCN(C)CC3)c2)cc2c1cnn2C(C)C" , tested on SUDIPGVI, maximal growth inhibition: 112

# maximal growth inhibition measured on SUDIPGVI for item "CC(C)C[C@H](NC(=O)[C@H](CCc1ccccc1)NC(=O)CN1CCOCC1)C(=O)N[C@@H](Cc1ccccc1)C(=O)N[C@@H](CC(C)C)C(=O)[C@@]1(C)CO1" = 95.3
